target: alpha2C receptor (Homo sapiens); construct: expressed in transfected cells; host or cells: NIH-3T3; assay: RSAT assay, alpha 2C; type: cell-based
pEC50: −log10 of the molar value.
Param threshold (7) applies to pEC50; output rule met when value >= threshold, rule not met when value < threshold.

* Fc1c(Cl)cccc1CNC1=NCCS1 | rule not met
* Fc1ccc(Br)c(CNC2=NCCO2)c1 | rule met
* Brc1cccc(CNC2=NCCS2)c1 | rule not met
* Fc1c(Br)cccc1CNC1=NCCS1 | rule not met
* FC(F)Oc1cccc(CNC2=NCCO2)c1 | rule met
* Cc1cc(Cl)cc(CNC2=NCCS2)c1F | rule not met
* COc1c(C)cccc1CNC1=NCCS1 | rule not met
* FC(F)(F)c1ccccc1CNC1=NCCO1 | rule met
* Clc1ccccc1CNC1=NCCO1 | rule met
* Fc1c(Cl)cccc1CNC1=NCCO1 [drawing 19] | rule met
* Cc1c(Cl)cccc1CNC1=NCCS1 | rule not met
* Fc1ccc(Br)c(CNC2=NCCS2)c1 | rule not met

* * *

molecular target: alpha2B receptor (Homo sapiens); construct: expressed in transfected cells; host or cells: NIH-3T3; assay: RSAT assay, alpha 2B; assay type: cell-based; conditions: RSAT; ratio of maximal effect to standard full agonist brimonidine (UK14304)
One threshold, 1, splits the recorded (rel. efficacy) Alpha 2B values: lower ones are Fulfilled, equal or higher ones are Not fulfilled.

• Clc1ccc(Br)cc1CNC1=NCCS1 = Fulfilled
• Fc1ccc(Br)c(CNC2=NCCS2)c1 = Fulfilled
• FC(F)(F)c1cccc(CNC2=NCCS2)c1Cl = Not fulfilled
• Fc1ccc(Br)c(CNC2=NCCO2)c1 = Not fulfilled
• Fc1ccc(Br)cc1CNC1=NCCO1 = Fulfilled
• FC(F)(F)c1cccc(CNC2=NCCO2)c1Cl = Fulfilled

* * *

Listed here are compounds together with their documented EC50.
target: alpha2C receptor (Homo sapiens); construct: expressed in transfected cells; host or cells: NIH-3T3; test: RSAT assay, alpha 2C; format: cell-based
endpoint-label: EC50

- Cc1cccc(CNC2=NCCS2)c1Cl: 32 nM
- COc1ccccc1CNC1=NCCS1 [drawing 16]: 1550 nM
- Fc1c(CNC2=NCCS2)cccc1C(F)(F)F: 1430 nM

* * *

target: alpha2B receptor (Homo sapiens, UniProt P18089); construct: expressed in transfected cells; host or cells: NIH-3T3; assay: RSAT assay, alpha 2B; format: cell-based; conditions: RSAT, NIH-3T3 cells; NA = not active; read-out: EC50 (nM) Alpha 2B
Sequence (P18089 whole entry): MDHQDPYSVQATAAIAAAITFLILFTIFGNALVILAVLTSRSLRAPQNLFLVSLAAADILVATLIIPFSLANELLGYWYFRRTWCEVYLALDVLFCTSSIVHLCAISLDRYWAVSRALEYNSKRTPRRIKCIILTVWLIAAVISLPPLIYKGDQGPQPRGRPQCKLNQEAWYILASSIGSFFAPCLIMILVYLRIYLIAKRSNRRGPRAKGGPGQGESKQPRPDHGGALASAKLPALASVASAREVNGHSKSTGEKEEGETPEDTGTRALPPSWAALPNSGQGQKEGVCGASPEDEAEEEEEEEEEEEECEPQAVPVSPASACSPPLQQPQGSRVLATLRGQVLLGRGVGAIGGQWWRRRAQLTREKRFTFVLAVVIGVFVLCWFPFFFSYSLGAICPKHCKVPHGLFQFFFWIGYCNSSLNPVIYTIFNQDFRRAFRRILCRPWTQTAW
endpoint-label: EC50

• Cc1cc(Br)c(F)c(CNC2=NCCS2)c1 = 168 nM
• Fc1ccc(Br)cc1CNC1=NCCS1 = 280 nM
• Clc1ccc(Br)cc1CNC1=NCCS1 = 296 nM
• FC(F)Oc1cccc(CNC2=NCCO2)c1 = 217 nM
• Clc1ccc(Br)c(CNC2=NCCS2)c1 = 250 nM
• FC(F)(F)c1cccc(CNC2=NCCS2)c1Cl = 101 nM

* * *

molecular target: alpha2C receptor (Homo sapiens, UniProt P18825); construct: expressed in transfected cells; host or cells: NIH-3T3; assay: RSAT assay, alpha 2C; assay type: cell-based; details: RSAT, NIH-3T3 cells; NA = not active; read-out: EC50 (nM) Alpha 2C
Sequence (P18825 whole entry): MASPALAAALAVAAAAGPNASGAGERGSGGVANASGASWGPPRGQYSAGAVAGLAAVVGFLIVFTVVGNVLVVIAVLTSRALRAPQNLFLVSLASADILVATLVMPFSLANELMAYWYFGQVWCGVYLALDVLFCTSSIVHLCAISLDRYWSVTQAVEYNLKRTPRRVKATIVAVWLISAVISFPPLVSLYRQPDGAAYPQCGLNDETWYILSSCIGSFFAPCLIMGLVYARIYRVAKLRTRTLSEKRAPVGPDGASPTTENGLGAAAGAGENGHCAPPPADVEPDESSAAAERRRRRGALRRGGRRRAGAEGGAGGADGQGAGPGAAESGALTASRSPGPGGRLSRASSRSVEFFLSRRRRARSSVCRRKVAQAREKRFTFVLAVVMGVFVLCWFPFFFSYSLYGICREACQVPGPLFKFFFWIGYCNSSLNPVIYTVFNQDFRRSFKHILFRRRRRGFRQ
Listed here are molecules together with their documented EC50.
endpoint-label: EC50 (nM)

* Cc1cc(Br)c(F)c(CNC2=NCCS2)c1 | 803
* Fc1ccc(Br)cc1CNC1=NCCS1 | 2060
* Clc1ccc(Br)c(CNC2=NCCS2)c1 | 855
* Clc1c(Br)cccc1CNC1=NCCS1 | 198
* Clc1cccc(CNC2=NCCS2)c1 | 504
* Fc1ccc(Br)cc1CNC1=NCCO1 | 186
* Fc1ccc(Cl)c(F)c1CNC1=NCCO1 | 356
* COc1ccccc1CNC1=NCCO1 [drawing 17] | 181
* COc1c(Br)cccc1CNC1=NCCS1 | 109
* FC(F)(F)c1cccc(CNC2=NCCO2)c1Cl | 189
* FC(F)(F)c1cccc(CNC2=NCCS2)c1Cl | 854
* COc1ccc(Cl)cc1CNC1=NCCS1 | 465
* Clc1cccc(CNC2=NCCS2)c1Br | 303
* Clc1ccccc1CNC1=NCCS1 | 699
* Clc1ccc(Br)cc1CNC1=NCCS1 | 1330
